- TEST_TARGET: IKZF1 ZNF2_ZNF3 Q1F degron-tagged CD19 CAR (Homo sapiens, UniProt Q13422, Q146F)
- Construct: ZNF2_ZNF3 Q1F degron (GERPFFCNQCGASFTQKGNLLRHIKLHSGEKPFKCHLCNYACRRRDALTGHLRTHS); fused on or other part: anti-CD19 scFv, CD28 transmembrane domain, 4-1BB costimulatory domain, CD3 zeta signaling domain (the CAR that carries the degron), and Nluc
- Sequence (Q13422 whole entry Q146F, the tested form may be a part): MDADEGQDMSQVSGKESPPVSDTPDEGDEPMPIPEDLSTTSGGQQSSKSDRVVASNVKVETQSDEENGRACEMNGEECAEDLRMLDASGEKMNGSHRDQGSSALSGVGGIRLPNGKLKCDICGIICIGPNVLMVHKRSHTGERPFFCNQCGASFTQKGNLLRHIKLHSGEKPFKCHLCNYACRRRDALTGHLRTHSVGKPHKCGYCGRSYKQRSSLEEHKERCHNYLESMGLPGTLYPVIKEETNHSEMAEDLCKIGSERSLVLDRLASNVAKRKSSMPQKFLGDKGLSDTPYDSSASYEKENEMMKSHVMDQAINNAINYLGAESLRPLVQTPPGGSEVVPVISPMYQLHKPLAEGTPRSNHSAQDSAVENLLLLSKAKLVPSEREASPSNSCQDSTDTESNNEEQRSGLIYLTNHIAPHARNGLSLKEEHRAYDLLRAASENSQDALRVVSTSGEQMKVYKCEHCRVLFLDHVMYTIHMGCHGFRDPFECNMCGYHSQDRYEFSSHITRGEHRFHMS
- MEASUREMENT_PROTOCOL: Degradation of Q1F degron-tagged CD19 CAR in Jurkat cells (flow cytometry of CAR levels)
- Assay type: cell-based
- EXPERIMENTAL_PARAMETERS: Jurkat cells expressing CD19 CAR tagged with IKZF1 ZNF2_ZNF3 Q1F; 18 hours at 37° C.; CAR levels normalized to untreated cells; read-out: Q1F Jurkat IC50
ENDPOINT_LABEL: DC50 (nM)

[
  {
    "COMPOUND": "O=C1CCC(N2Cc3c(cc(F)c(C(=O)N4CCc5c(Cl)cccc5C4)c3F)C2=O)C(=O)N1 (stereo not drawn)",
    "UNITS_LABEL": "nM",
    "RECORDED_MEASUREMENT": 23.7
  },
  {
    "COMPOUND": "O=C1CCC(N2Cc3c(cc(F)c(C4(O)CCN(Cc5coc(-c6cccs6)n5)CC4)c3F)C2=O)C(=O)N1 (stereo not drawn)",
    "UNITS_LABEL": "nM",
    "RECORDED_MEASUREMENT": 22.4
  },
  {
    "COMPOUND": "O=C1CCC(N2Cc3c(cc(F)c(C(=O)Nc4nccn4C4CCC4)c3F)C2=O)C(=O)N1 (stereo not drawn)",
    "UNITS_LABEL": "nM",
    "RECORDED_MEASUREMENT": 108
  },
  {
    "COMPOUND": "Cn1cnc2ccc(CN3CCC(c4c(F)cc5c(c4F)CN(C4CCC(=O)NC4=O)C5=O)CC3)cc21 (stereo not drawn)",
    "UNITS_LABEL": "nM",
    "RECORDED_MEASUREMENT": 0.698
  },
  {
    "COMPOUND": "O=C1CCC(N2Cc3c(cc(F)c(C4C[C@H]5CC[C@@H](C4)N5Cc4ccc(C(F)F)cc4)c3F)C2=O)C(=O)N1 (stereo partly drawn)",
    "UNITS_LABEL": "nM",
    "RECORDED_MEASUREMENT": 17.4
  },
  {
    "COMPOUND": "O=C1CCC(N2Cc3c(cc(F)c(C4(O)CCN(Cc5ccc(C(F)F)cc5)CC4)c3F)C2=O)C(=O)N1 (stereo not drawn)",
    "UNITS_LABEL": "nM",
    "RECORDED_MEASUREMENT": 5.41
  },
  {
    "COMPOUND": "CNc1ccc2c(n1)CN(C(=O)c1c(F)cc3c(c1F)CN(C1CCC(=O)NC1=O)C3=O)C2 (stereo not drawn)",
    "UNITS_LABEL": "nM",
    "RECORDED_MEASUREMENT": 3.11
  },
  {
    "COMPOUND": "COCCN1CCC(c2c(F)cc3c(c2F)CN(C2CCC(=O)NC2=O)C3=O)CC1 (stereo not drawn)",
    "UNITS_LABEL": "nM",
    "RECORDED_MEASUREMENT": 11
  },
  {
    "COMPOUND": "O=C1CCC(N2Cc3cc(C4CCN(CC5CCCCC5)CC4)c(F)cc3C2=O)C(=O)N1 (stereo not drawn)",
    "UNITS_LABEL": "nM",
    "RECORDED_MEASUREMENT": 1.72
  },
  {
    "COMPOUND": "Cc1cc(Br)cnc1CN1CCC(O)(c2c(F)cc3c(c2F)CN(C2CCC(=O)NC2=O)C3=O)CC1 (stereo not drawn)",
    "UNITS_LABEL": "nM",
    "RECORDED_MEASUREMENT": 86
  },
  {
    "COMPOUND": "O=C1CCC(N2Cc3cc(C4CCN(Cc5ccc6[nH]ccc6c5)CC4)c(F)cc3C2=O)C(=O)N1 (stereo not drawn)",
    "UNITS_LABEL": "nM",
    "RECORDED_MEASUREMENT": 2.67
  },
  {
    "COMPOUND": "O=C1CCC(N2Cc3c(cc(F)c(CNC(=O)c4cc5ccccn5c4)c3F)C2=O)C(=O)N1 (stereo not drawn)",
    "UNITS_LABEL": "nM",
    "RECORDED_MEASUREMENT": 35.2
  },
  {
    "COMPOUND": "O=C1CCC(N2Cc3c(cc(F)c(C4CCN(Cc5cnc6ccccc6n5)CC4)c3F)C2=O)C(=O)N1 (stereo not drawn)",
    "UNITS_LABEL": "nM",
    "RECORDED_MEASUREMENT": 3.19
  },
  {
    "COMPOUND": "O=C1CCC(N2Cc3cc(C4CCN(Cc5ccc6c(c5)CCC6)CC4)c(F)cc3C2=O)C(=O)N1 (stereo not drawn)",
    "UNITS_LABEL": "nM",
    "RECORDED_MEASUREMENT": 3.1
  },
  {
    "COMPOUND": "O=C1CCC(N2Cc3c(cc(F)c(C4CCN(Cc5nc6ccccc6s5)CC4)c3F)C2=O)C(=O)N1 (stereo not drawn)",
    "UNITS_LABEL": "nM",
    "RECORDED_MEASUREMENT": 10.7
  }
]

Data provenance is patent US20240327381A1.
